Where do the numbers come from? From paper PMC8367944.

# protocol.summary: Plasma and urine pharmacokinetics of berzosertib (LC-MS/MS, non-compartmental analysis)
# Assay type: in vivo, human
# measurement.parameters: human, intravenous; cumulative urine, days 2 and 3 of cycle 1; read-out: mean renal clearance (converted)
assay.metric: CL renal (mL/min)
Give your result in mL/min as a bare value.

Given CNCc1ccc(-c2cc(-c3nc(-c4ccc(S(=O)(=O)C(C)C)cc4)cnc3N)on2)cc1 , state its recorded CL renal.
78.3

----------
# protocol.summary: Plasma and urine pharmacokinetics of berzosertib (LC-MS/MS, non-compartmental analysis)
# Format: in vivo, human
# measurement.parameters: human, plasma, intravenous, 140 mg/m^2, berzosertib monotherapy, four patients; read-out: mean terminal elimination half-life (converted)
assay.metric: half-life

If you can, please state the reported half-life value of CNCc1ccc(-c2cc(-c3nc(-c4ccc(S(=O)(=O)C(C)C)cc4)cnc3N)on2)cc1 [berzosertib] .
~17 h

----------
# protocol.summary: Plasma and urine pharmacokinetics of berzosertib (LC-MS/MS, non-compartmental analysis)
# Assay type: in vivo, human
# measurement.parameters: human, iv, 140 mg/m2; plasma; lead-in period, berzosertib alone, 140 mg/m^2 i.v., n = 4; read-out: Cmax, mean (%CV)
assay.metric: Cmax (ng/mL)
Lab book: enter the figure in ng/mL, no units written.

# query: Cmax of entry CNCc1ccc(-c2cc(-c3nc(-c4ccc(S(=O)(=O)C(C)C)cc4)cnc3N)on2)cc1
652

----------
# protocol.summary: Plasma and urine pharmacokinetics of berzosertib (LC-MS/MS, non-compartmental analysis)
# Format: in vivo, human
# measurement.parameters: human, plasma, intravenous, 140 mg/m^2, plasma; cycle 1, day 2, berzosertib and cisplatin, berzosertib 140 mg/m^2, n = 8; read-out: T1/2, mean (%CV) (converted)
# Experimental: In cycle 1, plasma samples for PK analysis were collected both pre- and post-dose on days 2–5 (pre-dose, 0.5 h before the end of infusion, at the end of infusion, and 0.5, 1, 2, 3, 7, 23, 47, and 71 h after end of infusion) and day 9 (pre-dose). […] Berzosertib concentrations were quantified using a validated liquid chromatography tandem-mass spectrometry method and plasma PK were characterised by non-compartmental analyses using Phoenix WinNolin 6.4 (Certara USA Inc., Princeton, NJ, USA). […]
assay.metric: half-life

Item under review: CNCc1ccc(-c2cc(-c3nc(-c4ccc(S(=O)(=O)C(C)C)cc4)cnc3N)on2)cc1 [berzosertib] . Reported half-life?
17.5 h

----------
# protocol.summary: Plasma and urine pharmacokinetics of berzosertib (LC-MS/MS, non-compartmental analysis)
# Format: in vivo, human
# measurement.parameters: human, intravenous; plasma; cycle 1, day 2, berzosertib and cisplatin, berzosertib 140 mg/m^2, n = 8; read-out: Cmax, mean (%CV)
# Protocol: In cycle 1, plasma samples for PK analysis were collected both pre- and post-dose on days 2–5 (pre-dose, 0.5 h before the end of infusion, at the end of infusion, and 0.5, 1, 2, 3, 7, 23, 47, and 71 h after end of infusion) and day 9 (pre-dose). […] Berzosertib concentrations were quantified using a validated liquid chromatography tandem-mass spectrometry method and plasma PK were characterised by non-compartmental analyses using Phoenix WinNolin 6.4 (Certara USA Inc., Princeton, NJ, USA). […]
assay.metric: Cmax (ng/mL)
State just the number; it will be interpreted in ng/mL.

Give its Cmax value. Item: CNCc1ccc(-c2cc(-c3nc(-c4ccc(S(=O)(=O)C(C)C)cc4)cnc3N)on2)cc1 [berzosertib]
854

----------
# protocol.summary: Plasma and urine pharmacokinetics of berzosertib (LC-MS/MS, non-compartmental analysis)
# Type: in vivo, human
# measurement.parameters: human, intravenous; plasma; cycle 1, day 2, berzosertib and cisplatin, berzosertib 90 mg/m^2, n = 2; read-out: AUC0–∞, mean (%CV)
assay.metric: AUC(0-inf) (ng·h/mL)
// return numeric value only (unit: ng·h/mL, not printed)

I am curious: what AUC(0-inf) value has been reported for CNCc1ccc(-c2cc(-c3nc(-c4ccc(S(=O)(=O)C(C)C)cc4)cnc3N)on2)cc1 ?
2820

----------
# protocol.summary: Plasma and urine pharmacokinetics of berzosertib (LC-MS/MS, non-compartmental analysis)
# Format: in vivo, human
# measurement.parameters: human, iv, 140 mg/m2; plasma; lead-in period, berzosertib alone, 140 mg/m^2 i.v., n = 4; read-out: CL, mean (%CV) (converted)
assay.metric: clearance (mL/min)
Express it in mL/min; write the number only.

Item CNCc1ccc(-c2cc(-c3nc(-c4ccc(S(=O)(=O)C(C)C)cc4)cnc3N)on2)cc1 has what recorded clearance?
898

----------
# protocol.summary: Plasma and urine pharmacokinetics of berzosertib (LC-MS/MS, non-compartmental analysis)
# Format: in vivo, human
# measurement.parameters: human, intravenous; plasma; cycle 1, day 2, berzosertib and cisplatin, berzosertib 90 mg/m^2, n = 2; read-out: T1/2, mean (%CV) (converted)
assay.metric: half-life (h)
I only need the number, in h, no unit after it.

So what does the record say about half-life for CNCc1ccc(-c2cc(-c3nc(-c4ccc(S(=O)(=O)C(C)C)cc4)cnc3N)on2)cc1 [berzosertib] ?
17

----------
# protocol.summary: Plasma and urine pharmacokinetics of berzosertib (LC-MS/MS, non-compartmental analysis)
# Type: in vivo, human
# measurement.parameters: human, intravenous; plasma; cycle 1, day 2, berzosertib and cisplatin, berzosertib 210 mg/m^2, n = 17; read-out: AUC0–∞, mean (%CV)
assay.metric: AUC(0-inf)

Requested field: AUC(0-inf). Item: CNCc1ccc(-c2cc(-c3nc(-c4ccc(S(=O)(=O)C(C)C)cc4)cnc3N)on2)cc1
6740 ng·h/mL

----------
# protocol.summary: Plasma and urine pharmacokinetics of berzosertib (LC-MS/MS, non-compartmental analysis)
# Format: in vivo, human
# measurement.parameters: human, intravenous; plasma; cycle 1, day 2, berzosertib and cisplatin, berzosertib 90 mg/m^2, n = 2; read-out: Vss, mean (%CV)
assay.metric: Vd
Put down the number, then write its unit next to it.

Using the record for CNCc1ccc(-c2cc(-c3nc(-c4ccc(S(=O)(=O)C(C)C)cc4)cnc3N)on2)cc1 [berzosertib] , report its Vd.
1260 L

----------
# protocol.summary: Plasma and urine pharmacokinetics of berzosertib (LC-MS/MS, non-compartmental analysis)
# Type: in vivo, human
# measurement.parameters: human, intravenous; plasma; cycle 1, day 2, berzosertib and cisplatin, berzosertib 210 mg/m^2, n = 17; read-out: Cmax, mean (%CV)
assay.metric: Cmax (ng/mL)
Return type: number; implicit unit ng/mL.

Which Cmax value is on record for CNCc1ccc(-c2cc(-c3nc(-c4ccc(S(=O)(=O)C(C)C)cc4)cnc3N)on2)cc1 [berzosertib] ?
1230

----------
# protocol.summary: Plasma and urine pharmacokinetics of berzosertib (LC-MS/MS, non-compartmental analysis)
# Type: in vivo, human
# measurement.parameters: human, intravenous; plasma; cycle 1, day 2, berzosertib and cisplatin, berzosertib 210 mg/m^2, n = 17; read-out: CL, mean (%CV) (converted)
# Method: In cycle 1, plasma samples for PK analysis were collected both pre- and post-dose on days 2–5 (pre-dose, 0.5 h before the end of infusion, at the end of infusion, and 0.5, 1, 2, 3, 7, 23, 47, and 71 h after end of infusion) and day 9 (pre-dose). […] Berzosertib concentrations were quantified using a validated liquid chromatography tandem-mass spectrometry method and plasma PK were characterised by non-compartmental analyses using Phoenix WinNolin 6.4 (Certara USA Inc., Princeton, NJ, USA). […]
assay.metric: clearance (mL/min)
Form entry: value (mL/min) — number only.

Query: clearance; subject: CNCc1ccc(-c2cc(-c3nc(-c4ccc(S(=O)(=O)C(C)C)cc4)cnc3N)on2)cc1 [berzosertib]
1040

----------
# protocol.summary: Plasma and urine pharmacokinetics of berzosertib (LC-MS/MS, non-compartmental analysis)
# Format: in vivo, human
# measurement.parameters: human, intravenous; plasma; cycle 1, day 2, berzosertib and cisplatin, berzosertib 140 mg/m^2, n = 8; read-out: Vss, mean (%CV)
assay.metric: Vd (L)
Give the value in L but do not write L after it.

I am curious: what Vd value has been reported for CNCc1ccc(-c2cc(-c3nc(-c4ccc(S(=O)(=O)C(C)C)cc4)cnc3N)on2)cc1 [berzosertib] ?
1060

----------
# protocol.summary: Plasma and urine pharmacokinetics of berzosertib (LC-MS/MS, non-compartmental analysis)
# Format: in vivo, human
# measurement.parameters: human, intravenous; plasma; cycle 1, day 2, berzosertib and cisplatin, berzosertib 90 mg/m^2, n = 2; read-out: CL, mean (%CV) (converted)
assay.metric: clearance
Returns: string containing the number followed by the unit.

What does the record list as clearance for CNCc1ccc(-c2cc(-c3nc(-c4ccc(S(=O)(=O)C(C)C)cc4)cnc3N)on2)cc1 ?
1020 mL/min

----------
# protocol.summary: Plasma and urine pharmacokinetics of berzosertib (LC-MS/MS, non-compartmental analysis)
# Assay type: in vivo, human
# measurement.parameters: human, intravenous; plasma; cycle 1, day 2, berzosertib and cisplatin, berzosertib 140 mg/m^2, n = 8; read-out: CL, mean (%CV) (converted)
assay.metric: clearance (mL/min)
Answer with a number only, understood to be in mL/min.

Given the entry CNCc1ccc(-c2cc(-c3nc(-c4ccc(S(=O)(=O)C(C)C)cc4)cnc3N)on2)cc1 [berzosertib] , report its measured clearance.
912
